Subject Of Test: LRRK2 (Homo sapiens, UniProt Q5S007)
Sequence (Q5S007 970-2527 limits assumed): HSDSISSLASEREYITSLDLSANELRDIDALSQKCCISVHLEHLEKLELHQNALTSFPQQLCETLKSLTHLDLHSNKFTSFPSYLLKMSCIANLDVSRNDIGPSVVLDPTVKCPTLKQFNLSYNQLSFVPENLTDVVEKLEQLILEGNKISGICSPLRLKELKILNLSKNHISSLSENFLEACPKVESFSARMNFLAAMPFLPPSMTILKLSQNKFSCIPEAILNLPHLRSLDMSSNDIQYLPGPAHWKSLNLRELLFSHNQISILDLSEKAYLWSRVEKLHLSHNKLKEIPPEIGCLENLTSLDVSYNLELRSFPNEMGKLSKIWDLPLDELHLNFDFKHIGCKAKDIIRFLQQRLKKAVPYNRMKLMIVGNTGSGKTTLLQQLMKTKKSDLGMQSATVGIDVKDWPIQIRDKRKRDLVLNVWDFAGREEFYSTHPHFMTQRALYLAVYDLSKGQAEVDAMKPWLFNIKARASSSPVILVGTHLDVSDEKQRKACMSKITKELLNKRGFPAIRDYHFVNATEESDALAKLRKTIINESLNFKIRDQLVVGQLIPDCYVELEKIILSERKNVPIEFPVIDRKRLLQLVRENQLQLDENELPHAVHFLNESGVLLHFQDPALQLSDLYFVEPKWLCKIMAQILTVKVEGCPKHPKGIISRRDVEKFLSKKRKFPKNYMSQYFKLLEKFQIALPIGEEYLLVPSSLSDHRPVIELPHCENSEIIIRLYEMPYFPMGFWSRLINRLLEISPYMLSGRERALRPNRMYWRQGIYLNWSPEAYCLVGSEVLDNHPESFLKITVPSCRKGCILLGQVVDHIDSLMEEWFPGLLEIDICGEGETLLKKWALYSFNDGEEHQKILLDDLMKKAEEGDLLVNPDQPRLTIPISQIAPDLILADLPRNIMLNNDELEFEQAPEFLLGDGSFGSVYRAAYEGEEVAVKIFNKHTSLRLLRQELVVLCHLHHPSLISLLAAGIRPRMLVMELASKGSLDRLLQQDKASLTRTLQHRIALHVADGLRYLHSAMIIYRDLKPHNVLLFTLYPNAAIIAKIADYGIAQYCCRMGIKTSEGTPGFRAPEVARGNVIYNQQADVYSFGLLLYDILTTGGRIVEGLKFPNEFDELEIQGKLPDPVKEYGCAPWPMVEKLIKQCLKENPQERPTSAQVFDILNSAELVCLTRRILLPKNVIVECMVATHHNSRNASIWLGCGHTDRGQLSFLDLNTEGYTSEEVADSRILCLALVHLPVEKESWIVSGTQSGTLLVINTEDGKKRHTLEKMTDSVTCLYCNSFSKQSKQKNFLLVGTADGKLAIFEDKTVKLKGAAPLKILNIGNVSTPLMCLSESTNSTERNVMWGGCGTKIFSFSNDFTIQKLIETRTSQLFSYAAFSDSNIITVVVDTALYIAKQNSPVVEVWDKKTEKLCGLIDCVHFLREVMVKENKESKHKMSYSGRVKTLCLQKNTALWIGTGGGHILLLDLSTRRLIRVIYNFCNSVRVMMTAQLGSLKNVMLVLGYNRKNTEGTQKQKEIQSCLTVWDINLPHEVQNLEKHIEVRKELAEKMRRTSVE
Experimental Protocol: LRRK2 assay (LanthaScreen Eu Kinase Binding Assay)
Condition Set: 5 nM LRRK2, 10 nM tracer 236, RT 1 h; read-out: LRRK2 Activites: IC50
pIC50: −log10 of the molar value.
Each entry below lists one item and its recorded pIC50 value.

In the examples that follow, each entry is paired with its recorded pIC50.
Structure: CCN1CCN(c2ccc(Nc3nc4ccc(OC)cc4c4c[nH]nc34)cc2F)CC1
Subject Of Test: LRRK2 (Homo sapiens, UniProt Q5S007)
Result: 7.00 to 8.00
--
Structure: COc1ccc2nc(Nc3ccc(NC(C)=O)cc3)c3n[nH]cc3c2c1
Subject Of Test: LRRK2 (Homo sapiens, UniProt Q5S007)
Result: 6.00 to 7.00
--
Structure: COc1ccc2nc(Nc3ccc(CN)cc3)c3[nH]ncc3c2c1
Subject Of Test: LRRK2 (Homo sapiens, UniProt Q5S007)
Result: 6.00 to 7.00

Q: Give the reported pIC50 for "O=C1COc2ccc(Nc3nc4ccccc4c4cn[nH]c34)cc2N1" (system: LRRK2 (Homo sapiens, UniProt Q5S007)).
Ans: 6.00 to 7.00

Q: Please give the result for "COc1cccc2c1nc(Nc1ccc(C)cc1)c1n[nH]cc12" too.
Ans: 6.00 to 7.00

Q: Please give the result for "COc1ccc2nc(Nc3ccc4c(c3)OCC(=O)N4)c3[nH]ncc3c2c1" too.
Ans: 6.00 to 7.00

Q: Please give the result for "COc1ccc2nc(Nc3ccc(N4CCOCC4)c(F)c3)c3n[nH]cc3c2c1" too.
Ans: 6.00 to 7.00

Q: Please give the result for "COc1ccc2nc(Nc3ccc(N4CCOCC4=O)cc3)c3n[nH]cc3c2c1" too.
Ans: 7.00 to 8.00
